target: CDK2/Cyclin E complex (UniProt P24941 1-298; P24864 1-410); test: cell-based or functional assay; further: test concentration or dose not given here
Ends that are not written are not given here.
RECORDED ENDPOINT: % Inhibition, cyclin E/CDK2 kinase (%)
Reply with just the number (in %).

Request: Quick one: % Inhibition, cyclin E/CDK2 kinase of DFYHSKRRLIFS-NH2 [p21 (149-160) DFYHSKRRLIFS-NH2] ?
Result: 80

Request: Follow-up entry: HSKRRLIFS-NH2 [HSKRRLIFS-NH2]
Result: 80

Request: Follow-up entry: AFYHSKRRLIFS-NH2 [AFYHSKRRLIFS-NH2]
Result: 70

Request: Follow-up entry: FYHSKRRLI-NH2 [FYHSKRRLI-NH2]
Result: 45

Request: Follow-up entry: DFYASKRRLIFS-NH2 [DFYASKRRLIFS-NH2]
Result: 80

Request: Follow-up entry: DFYHSKRRAIFS-NH2 [DFYHSKRRAIFS-NH2]
Result: 30

Source listed as patent US20040176301A1.
